# test summary: yeast display, Sf9 membrane polyspecificity reagent, FACS + sequencing; frameworks hold sequencing errors
measured metric: polyreactivity (PSR sort gate)

chain	polyreactivity (PSR sort gate)
QVQLVESGGGLVQAGGSLRLSCAASGRTLDYNAMGLYRQAPGKERELVAAISWTGDSTYYADSVKGRFTISRDNAKNTVNLQMNSLKPEDTAVYYCAASYSRFVDWIGDPGYDYWGQGTQVTVSS	low polyreactivity
QVQLVESGGGLVQAGGSLRLSCAASGRIFRSYAMGWYRQAPGKERELVAAITWGGGRTYYADSVKGRFTISRDNAKNTVYLQMNSLKPEDTAVYYCNTLAYPYYRGSKYDYWGQGTQVTVSS	high polyreactivity
QVQLVESGGGLVQEGGSLLLSCDASGFTFAVYAMGWYRQAPGKERELVAAITTSGTRTYNADSVKGRFTISRDNAKNTVYLQMNSLKPEDTAVYYCAAVVFRQWPEFDYWGQGTQVTVSS	low polyreactivity
QVHLVESGGGLVQAGGSLRLSCAASGRIFDGYDMGWYRQAPGKERELVAAITSVGSTNYADSVKGRFTISRDNAKNTVYLQMNSLKPEDTAVYYCAAVLYVFDDEYGYLEYFSQYDYWGQGSQVTVSS	low polyreactivity

Ask | Entry QVHLVESGGGLVQAGGSLRLTCAASGFTFQGYAMGRYRQAPGKERELVAAISIGGVRTYYADSVKGRFTISRDNAKNTVYLQMNSLKPEDTAVYYCAKDGSKLSSYNYWGQGTQVTVSS has what polyreactivity (PSR sort gate)?
Reply | high polyreactivity

====

# test summary: yeast display, Sf9 membrane polyspecificity reagent, FACS + sequencing; frameworks hold sequencing errors

chain	polyreactivity (PSR sort gate)
QVQLVESGGGLVQAGGSLRLSCAASGFIIARNAMGWYRQAPGKERELVAAISASGGRTYYADSVKGRFTISRDNAKNTVYLQMNSLKPEDTAVYYCAARRDGRSGSYNYWGQGTQVTVSS	high polyreactivity
QVQLVESGGGLVQAGGSLRLSCAASGSTFNNNAMGWYRQAPGKERELVAAISYTGGSTYYADSVKGRFTISRDNAKNTVYLQMKSLKPEDTAVYYCDAAYPHFGGYRYDYWGQGTQVTVSS	high polyreactivity

====

# test summary: yeast display, Sf9 membrane polyspecificity reagent, FACS + sequencing; frameworks hold sequencing errors
measured metric: polyreactivity (PSR sort gate)

Here's what some known entries look like.
chain	result
QVQLEESGGGLVQEGGSLRLSCAASGSIFGGYVMGWYRQAPGKERELVAVITKRGGSTYYADSVKGRFTISRDNAKNTVYFQMNSLKPEDTAVYYCNKDGYYASVLGYDYWGQGTQVTVSS	high polyreactivity
QVQLVESGGGLVQAGGSLRLSCAASGRIFGGYAMGWYRQAPGKERELVAAISNGGRTNYADSVKGRFTISRDNAKNTVYLQMISLKPEDTAVYYCAARNYKPYGYYRIYDSWGQGTQVTVSS	high polyreactivity
QVQLVESGGGLVQAGGSLRLSCAASGRTFWPYAMGWYRQAPGKERELVAAITSDGSTTYADSVTGRFTISRDNAKNTVYLQMNSLTPEDTAVYYCAAYGYYYDQTIPMDYWGQGTQVTVSS	low polyreactivity
QVQLVESGGGLVQAGGSLRLTCAASGRILRINTMGWYRQAPGKEMELVAAISLSGGTTYYAHSVKGRFTISRDNAKNTVYLQMNSVKPEDTAVYYCYKAIWYAEYDYWGQGTQVTVSS	low polyreactivity

Ask | Entry QVQLVESGGGLVQAGGSLRLSCAASGRIFVSNAMGWYRQAPGKERELVASISWSGGSTYYADSVKGRFTISRDNAKNTVYLQMNSLKPEDTAVYYCNRVRYPRQGFRLYYWGQGTQVTVSS has what polyreactivity (PSR sort gate)?
Reply | high polyreactivity

Ask | Please do the same for QVQLVESAGGLVQAGGSLRLSCAASGIIFGQNAMGWYRQAPGKDRELVAAITISGGSTYYADSVKGRFTISRDNAKNTVYLQMNSLKPEVTAVYYCAARRVTWKDIAGGYRYGYWGQGTQVTVSS as well.
Reply | low polyreactivity

Ask | Please do the same for QVQLVESGGGLVQAGGSLRLSCAASGSTFLSYAMGRYRQAPGKERELVAAITGSGGNTYYADSVKGRFTISRDNAKNSVYLQMNSLKPEDTAVYYCAADTSYWYDYYIDYVGYYYWGQGTQVTVSS as well.
Reply | high polyreactivity

These measurements were taken from the nanobody polyreactivity screen of Harvey et al. (2022).
